Read-out record for 14 kDa phosphohistidine phosphatase (Homo sapiens): IC50
Report as a plain number; the unit µM is understood.

# compound, IC50 / µM
measured = [
    ("Cc1cc(O)c(C=O)c2c1C(=O)Oc1c(C)c(O)c3c(c1O2)C(O)OC3=O (centres undefined) [NORSTICTIC ACID]", 7.9),
    ("O=[N+]([O-])c1cc([As](=O)(O)O)ccc1O [ROXARSONE]", 80),
    ("COc1cc(C)c2c(c1C=O)Oc1c(c(C)c(O)c3c1C(O)OC3=O)OC2=O (centres undefined) [STICTIC ACID]", 22),
]

Could you now consider this next compound?
Enquiry: Consider the compound CC(=O)Nc1cc([As](=O)(O)O)ccc1O [ACETARSONE] and give its recorded IC50.
Return: 100
